Study target: T1, TNFR1 (Homo sapiens, UniProt P19438)
T1 chain: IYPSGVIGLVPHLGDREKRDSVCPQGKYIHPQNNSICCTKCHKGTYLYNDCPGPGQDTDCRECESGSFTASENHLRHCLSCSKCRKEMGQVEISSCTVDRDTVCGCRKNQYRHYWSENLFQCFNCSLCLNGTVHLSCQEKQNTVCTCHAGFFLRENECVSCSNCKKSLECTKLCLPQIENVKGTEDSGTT
Experiment summary: yeast display SC50
Quantity measured: apparent Kd (screen) (nM)

Sample records with apparent Kd (screen):
Which apparent Kd (screen) is reported for this binder? I21F (designed binder) SMEEEVEKAAKEYEKKKKEAFEKHLEKLKAKDKEAAERFLKELEEAAKEYAKDEAKTMSEEEAKRRAKKYKEKVLLSELSEEEQKEIKEAEEKLVRTILKYVEEAAK
0.49

Which apparent Kd (screen) is reported for this binder? K27F (designed binder) SMEEEVEKAAKEYEKKKKEAIEKHLEFLKAKDKEAAERFLKELEEAAKEYAKDEAKTMSEEEAKRRAKKYKEKVLLSELSEEEQKEIKEAEEKLVRTILKYVEEAAK
0.49

Which apparent Kd (screen) is reported for this binder? K68Q (designed binder) SMEEEVEKAAKEYEKKKKEAIEKHLEKLKAKDKEAAERFLKELEEAAKEYAKDEAKTMSEEEAKRRAQKYKEKVLLSELSEEEQKEIKEAEEKLVRTILKYVEEAAK
0.653

Which apparent Kd (screen) is reported for this binder? K27G (designed binder) SMEEEVEKAAKEYEKKKKEAIEKHLEGLKAKDKEAAERFLKELEEAAKEYAKDEAKTMSEEEAKRRAKKYKEKVLLSELSEEEQKEIKEAEEKLVRTILKYVEEAAK
0.79

Which apparent Kd (screen) is reported for this binder? E103C (designed binder) SMEEEVEKAAKEYEKKKKEAIEKHLEKLKAKDKEAAERFLKELEEAAKEYAKDEAKTMSEEEAKRRAKKYKEKVLLSELSEEEQKEIKEAEEKLVRTILKYVCEAAK
7.78

Which apparent Kd (screen) is reported for this binder? E81M (designed binder) SMEEEVEKAAKEYEKKKKEAIEKHLEKLKAKDKEAAERFLKELEEAAKEYAKDEAKTMSEEEAKRRAKKYKEKVLLSELSMEEQKEIKEAEEKLVRTILKYVEEAAK
0.539

[a] A63I (designed binder) SMEEEVEKAAKEYEKKKKEAIEKHLEKLKAKDKEAAERFLKELEEAAKEYAKDEAKTMSEEEIKRRAKKYKEKVLLSELSEEEQKEIKEAEEKLVRTILKYVEEAAK
[b] A10V (designed binder) SMEEEVEKAVKEYEKKKKEAIEKHLEKLKAKDKEAAERFLKELEEAAKEYAKDEAKTMSEEEAKRRAKKYKEKVLLSELSEEEQKEIKEAEEKLVRTILKYVEEAAK
Between a and b , whose recorded apparent Kd (screen) is greater? When you have decided, please share the label of that item.
a

Reference for the values: paper PMC12416549
